Origin of measurements: the supplement of paper PMC5998384

- Test system: HeLa Kyoto;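 also: synchronized HeLa Kyoto cells (double thymidine block for G1/S, nocodazole release for mitosis), protein amounts in NP-40 versus SDS lysates quantified by mass spectrometry, three biological replicates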
- Assay: solubility change mitosis vs G1/S (difference of NP-40 vs SDS log2 ratios) (log2 ratio difference); higher = more soluble in mitosis
Endpoint: solubility change mitosis (log2)
Answer using only a numeral; do not append any unit.

Substance | Endpoint | Val
MASGDFCSPGEGMEILQQVCSKQLPPCNLSKEDLLQNPYFSKLLLNLSQHVDESGLSLTLAKEQAQAWKEVRLHKTTWLRSEILHRVIQELLVDYYVKIQDTNVTSEDKKFHETLEQRLLVTELMRLLGPSQEREIPPLLGLEKADLLELMPLSEDFVWMRARLQQEVEEQLKKKCFTLLCYYDPNSDADSETVKAAKVWKLAEVLVGEQQQCQDAKSQQKEQMLLLEKKSAAYSQVLLRCLTLLQRLLQEHRLKTQSELDRINAQYLEVKCGAMILKLRMEELKILSDTYTVEKVEVHRLIRDRLEGAIHLQEQDMENSRQVLNSYEVLGEEFDRLVKEYTVLKQATENKRWALQEFSKVYR [HAUS4] | solubility change mitosis (log2) | -0.0485

Prompt: If you can, please state the reported solubility change mitosis (log2) value of ARFGEF2 .
Response: -0.155

Prompt: If you can, please state the reported solubility change mitosis (log2) value of MASVRIREAKEGDCGDILRLIRELAEFEKLSDQVKISEEALRADGFGDNPFYHCLVAEILPAPGKLLGPCVVGYGIYYFIYSTWKGRTIYLEDIYVMPEYRGQGIGSKIIKKVAEVALDKGCSQFRLAVLDWNQRAMDLYKALGAQDLTEAEGWHFFCFQGEATRKLAGK [SAT2] .
Response: -0.259

Prompt: If you can, please state the reported solubility change mitosis (log2) value of MDPPAVVAESVSSLTIADAFIAAGESSAPTPPRPALPRRFICSFPDCSANYSKAWKLDAHLCKHTGERPFVCDYEGCGKAFIRDYHLSRHILTHTGEKPFVCAANGCDQKFNTKSNLKKHFERKHENQQKQYICSFEDCKKTFKKHQQLKIHQCQHTNEPLFKCTQEGCGKHFASPSKLKRHAKAHEGYVCQKGCSFVAKTWTELLKHVRETHKEEILCEVCRKTFKRKDYLKQHMKTHAPERDVCRCPREGCGRTYTTVFNLQSHILSFHEESRPFVCEHAGCGKTFAMKQSLTRHAVVHDPDKKKMKLKVKKSREKRSLASHLSGYIPPKRKQGQGLSLCQNGESPNCVEDKMLSTVAVLTLG [GTF3A] .
Response: 0.0516

Prompt: If you can, please state the reported solubility change mitosis (log2) value of MKKSIGILSPGVALGMAGSAMSSKFFLVALAIFFSFAQVVIEANSWWSLGMNNPVQMSEVYIIGAQPLCSQLAGLSQGQKKLCHLYQDHMQYIGEGAKTGIKECQYQFRHRRWNCSTVDNTSVFGRVMQIGSRETAFTYAVSAAGVVNAMSRACREGELSTCGCSRAARPKDLPRDWLWGGCGDNIDYGYRFAKEFVDARERERIHAKGSYESARILMNLHNNEAGRRTVYNLADVACKCHGVSGSCSLKTCWLQLADFRKVGDALKEKYDSAAAMRLNSRGKLVQVNSRFNSPTTQDLVYIDPSPDYCVRNESTGSLGTQGRLCNKTSEGMDGCELMCCGRGYDQFKTVQTERCHCKFHWCCYVKCKKCTEIVDQFVCK [WNT5A] .
Response: -0.0777

Prompt: If you can, please state the reported solubility change mitosis (log2) value of MDWVMKHNGPNDASDGTVRLRGLPFGCSKEEIVQFFQGLEIVPNGITLTMDYQGRSTGEAFVQFASKEIAENALGKHKERIGHRYIEIFRSSRSEIKGFYDPPRRLLGQRPGPYDRPIGGRGGYYGAGRGSMYDRMRRGGDGYDGGYGGFDDYGGYNNYGYGNDGFDDRMRDGRGMGGHGYGGAGDASSGFHGGHFVHMRGLPFRATENDIANFFSPLNPIRVHIDIGADGRATGEADVEFVTHEDAVAAMSKDKNNMQHRYIELFLNSTPGGGSGMGGSGMGGYGRDGMDNQGGYGSVGRMGMGNNYSGGYGTPDGLGGYGRGGGGSGGYYGQGGMSGGGWRGMY [HNRNPH3] .
Response: 0.282
